Source: patent US20050261290A1

Consider the following compounds; for each one, report its inhibition at 0.1 µM.
- Assayed System: human 11b-hsd-1 (Homo sapiens)
- Sequence (P28845 whole entry): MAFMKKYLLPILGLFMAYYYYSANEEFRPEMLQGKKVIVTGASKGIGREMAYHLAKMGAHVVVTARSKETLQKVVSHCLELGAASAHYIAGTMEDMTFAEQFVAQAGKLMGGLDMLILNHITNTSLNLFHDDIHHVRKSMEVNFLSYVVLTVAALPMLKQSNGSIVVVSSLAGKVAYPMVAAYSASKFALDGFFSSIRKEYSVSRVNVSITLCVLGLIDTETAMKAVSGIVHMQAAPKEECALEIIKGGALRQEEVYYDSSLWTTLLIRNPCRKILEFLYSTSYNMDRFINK
- Method Description: Inhibition constant Ki of human 11b-hsd-1 (3H-cortisone to 3H-cortisol conversion, HPLC)
- Format: biochemical
- Condition Info: compound at 0.1 μM
// units = %; emit number, no label

Task: I am curious: what inhibition at 0.1 µM value has been reported for CCCN1CCOC[C@@H]1C(=O)NC1C2CC3CC(C2)CC1C3 (stereo partly drawn) ?
Result: 100

Task: I am curious: what inhibition at 0.1 µM value has been reported for O=C(NC1C2CC3CC(C2)CC1C3)[C@H]1CCCN1CC1CCNC1 (stereo partly drawn) ?
Result: 100

Task: I am curious: what inhibition at 0.1 µM value has been reported for CC(=O)NCCN1CCC[C@@H]1C(=O)NC1C2CC3CC(C2)CC1C3 (stereo partly drawn) ?
Result: 72

Task: I am curious: what inhibition at 0.1 µM value has been reported for CCN1CCC[C@@H]1C(=O)NC1CCCCC1C (stereo partly drawn) ?
Result: 70

Task: I am curious: what inhibition at 0.1 µM value has been reported for CCCN1CCC[C@@H]1C(=O)NC12C3C4C1C1C2C3C41C (stereo partly drawn) ?
Result: 100

Task: I am curious: what inhibition at 0.1 µM value has been reported for O=C(NC1C2CC3CC(C2)CC1C3)[C@H]1COCCN1CCO (stereo partly drawn) ?
Result: 89

Task: I am curious: what inhibition at 0.1 µM value has been reported for CN(Cc1ccc(F)cc1)C(=O)[C@H]1COCCN1Cc1ccc(C#N)cc1 ?
Result: 90

Task: I am curious: what inhibition at 0.1 µM value has been reported for CCCN1CCC[C@@H]1C(=O)NC1CCCCC1 ?
Result: 94

Task: I am curious: what inhibition at 0.1 µM value has been reported for CC(C)CN1C[C@H](O)C[C@@H]1C(=O)NC1C2CC3CC(C2)CC1C3 (stereo partly drawn) ?
Result: 100
